Tested system: Beta-glucuronidase (Escherichia coli (strain K12), UniProt P05804)
Sequence (P05804 whole entry): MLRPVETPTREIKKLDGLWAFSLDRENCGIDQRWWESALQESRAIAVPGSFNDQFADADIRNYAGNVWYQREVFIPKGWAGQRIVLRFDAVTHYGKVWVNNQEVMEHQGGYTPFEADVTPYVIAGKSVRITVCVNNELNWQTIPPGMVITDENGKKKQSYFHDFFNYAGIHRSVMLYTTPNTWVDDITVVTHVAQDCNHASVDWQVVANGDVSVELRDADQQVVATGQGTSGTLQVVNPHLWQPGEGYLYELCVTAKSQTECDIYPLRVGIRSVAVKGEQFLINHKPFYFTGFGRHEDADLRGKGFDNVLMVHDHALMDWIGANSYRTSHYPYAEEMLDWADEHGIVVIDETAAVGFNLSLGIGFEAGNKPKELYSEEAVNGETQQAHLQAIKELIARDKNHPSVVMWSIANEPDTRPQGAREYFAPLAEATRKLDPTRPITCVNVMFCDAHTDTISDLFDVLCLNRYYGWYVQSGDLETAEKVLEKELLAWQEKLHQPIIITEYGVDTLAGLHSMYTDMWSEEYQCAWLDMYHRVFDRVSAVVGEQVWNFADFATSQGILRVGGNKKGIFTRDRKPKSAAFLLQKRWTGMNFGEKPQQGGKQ
Assay details: β-Glucuronidase Inhibition Assay
Test parameters: pH 7; 37 °C
Endpoint label: pIC50
Give bare numbers, as −log10 of the molar value.

# example entries with known answers
Molecule: C[C@]12CC[C@H]3[C@@H]([C@@H](O)CC4=C[C@@H](O)CC[C@@]43C)[C@@H]1CC[C@@H]2O
Endpoint label: pIC50
Meas value: 3.72
--
Molecule: C[C@]12CC[C@H](O)C=C1C(=O)C[C@@H]1[C@@H]2CC[C@]2(C)C(=O)CC[C@@H]12
Endpoint label: pIC50
Meas value: 3.65
--
Molecule: C[C@]12CCC(=O)CC1CC[C@@H]1[C@@H]2CC[C@]2(C)C(=O)CC[C@@H]12 (some centres undefined)
Endpoint label: pIC50
Meas value: 3.43

Consider now this further molecule.
Query: Report its pIC50 with Beta-glucuronidase (Escherichia coli (strain K12), UniProt P05804) as the test system: "C[C@]12CCC(=O)C=C1CC[C@@H]1[C@@H]2CC[C@]2(C)C(=O)CC[C@@H]12"
Reply: 3.37
